- experimental-target: CYP2D6 (Homo sapiens)
- Sequence (P10635 whole entry): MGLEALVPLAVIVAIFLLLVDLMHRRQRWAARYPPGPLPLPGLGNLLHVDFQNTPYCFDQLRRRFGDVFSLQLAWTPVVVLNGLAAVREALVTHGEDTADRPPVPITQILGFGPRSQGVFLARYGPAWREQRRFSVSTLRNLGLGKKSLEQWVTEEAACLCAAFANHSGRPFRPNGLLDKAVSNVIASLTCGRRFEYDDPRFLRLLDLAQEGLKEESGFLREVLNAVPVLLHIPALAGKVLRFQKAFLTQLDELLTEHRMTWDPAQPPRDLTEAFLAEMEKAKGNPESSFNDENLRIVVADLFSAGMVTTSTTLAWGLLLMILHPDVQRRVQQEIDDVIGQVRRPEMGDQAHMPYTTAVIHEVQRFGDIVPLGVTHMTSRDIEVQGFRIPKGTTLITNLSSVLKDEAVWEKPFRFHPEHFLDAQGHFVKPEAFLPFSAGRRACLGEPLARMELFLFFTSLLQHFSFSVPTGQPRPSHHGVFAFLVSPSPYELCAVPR
- test-method-notes: Kinetic parameters for MDI of CYP2D6 in pooled HLM
- assay-context: human, pooled human liver microsomes, pH 7.4, probe dextromethorphan (5 µM)
measured-quantity: kinact (s⁻¹)

{"input-smiles": "COc1ccc2cc3[n+](cc2c1OC)CCc1cc2c(cc1-3)OCO2", "measured-quantity": "kinact", "numeric-value": 0.000417}

* * *

- test-method-notes: Metabolic stability and metabolite formation of BBR in pooled HLM
- assay-context: BBR 1 µM in pooled HLM with NADPH-generating system; 120 min; mean ± SD
measured-quantity: Concentration in incubation mixture (elimination of BBR and formation of its metabolites) (µM)

{"compound": "COc1c(O)ccc2cc3[n+](cc12)CCc1cc2c(cc1-3)OCO2 [TFD, thalifendine]", "numeric-value": 0.0493}
{"compound": "COc1ccc2cc3[n+](cc2c1OC)CCc1cc(O)c(O)cc1-3 [DMB, demethyleneberberine]", "numeric-value": 0.075}
{"compound": "COc1ccc2cc3[n+](cc2c1OC)CCc1cc2c(cc1-3)OCO2 [BBR, berberine]", "numeric-value": 0.147}
{"compound": "COc1cc2c(cc1O)CC[n+]1cc3c(OC)c(OC)ccc3cc1-2 [JTZ, jatrorrhizine]", "numeric-value": 0.0096}
{"compound": "COc1ccc2cc3[n+](cc2c1O)CCc1cc2c(cc1-3)OCO2 [BRB, berberrubine]", "numeric-value": 0.0062}
